Consider compounds characterized by their pIC50 with YopH (Yersinia enterocolitica, UniProt P15273).
Sequence (P15273 whole entry, looked up): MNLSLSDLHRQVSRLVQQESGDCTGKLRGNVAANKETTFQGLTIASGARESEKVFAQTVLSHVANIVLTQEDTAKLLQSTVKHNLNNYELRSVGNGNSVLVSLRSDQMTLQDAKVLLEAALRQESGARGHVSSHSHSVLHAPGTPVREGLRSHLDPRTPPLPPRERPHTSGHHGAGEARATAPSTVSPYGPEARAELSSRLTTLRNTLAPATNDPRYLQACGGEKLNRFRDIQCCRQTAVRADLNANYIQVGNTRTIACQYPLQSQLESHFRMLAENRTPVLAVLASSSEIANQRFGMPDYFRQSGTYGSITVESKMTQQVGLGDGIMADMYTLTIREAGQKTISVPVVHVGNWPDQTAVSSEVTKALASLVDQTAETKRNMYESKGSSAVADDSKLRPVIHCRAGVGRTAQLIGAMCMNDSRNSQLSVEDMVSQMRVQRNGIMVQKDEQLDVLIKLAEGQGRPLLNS
pIC50: −log10 of the molar value.

Known results for compounds:
{"COMPOUND": "O=C(Nc1ccc2nc(C(F)(F)F)[nH]c2c1)C(c1ccccc1)S(=O)(=O)O (stereo not drawn) [Compound L319M54]", "EXPERIMENTAL_TARGET": "YopH (Yersinia enterocolitica, UniProt P15273)", "pIC50": "< 3.70"}
{"COMPOUND": "O=C(Nc1nc2ccccc2s1)C(c1ccccc1)S(=O)(=O)O (stereo not drawn) [Compound L319N15]", "EXPERIMENTAL_TARGET": "YopH (Yersinia enterocolitica, UniProt P15273)", "pIC50": "< 3.70"}
{"COMPOUND": "O=C(Nc1cnc2ccccc2c1)C(c1ccccc1)S(=O)(=O)O (stereo not drawn) [Compound L319M88]", "EXPERIMENTAL_TARGET": "YopH (Yersinia enterocolitica, UniProt P15273)", "pIC50": "< 3.70"}
{"COMPOUND": "O=C(C(c1ccccc1)S(=O)(=O)O)N1CCC(Cc2ccccc2)CC1 (stereo not drawn) [Compound L319N46]", "EXPERIMENTAL_TARGET": "YopH (Yersinia enterocolitica, UniProt P15273)", "pIC50": "< 3.70"}
{"COMPOUND": "O=C(CS(=O)(=O)O)Nc1nc2ccc([N+](=O)[O-])cc2s1 [Compound L335N15-07]", "EXPERIMENTAL_TARGET": "YopH (Yersinia enterocolitica, UniProt P15273)", "pIC50": "< 4.00"}
{"COMPOUND": "O=C(CS(=O)(=O)O)Nc1nc2ccccc2s1 [Compound L335N15]", "EXPERIMENTAL_TARGET": "YopH (Yersinia enterocolitica, UniProt P15273)", "pIC50": "< 4.00"}
{"COMPOUND": "O=C(C(c1ccccc1)S(=O)(=O)O)N1CCC(c2ccc(Cl)c(Cl)c2)CC1 (stereo not drawn) [Compound L319N47]", "EXPERIMENTAL_TARGET": "YopH (Yersinia enterocolitica, UniProt P15273)", "pIC50": 3.80}
{"COMPOUND": "O=C(CS(=O)(=O)O)Nc1ccc2nc(C(F)(F)F)[nH]c2c1", "EXPERIMENTAL_TARGET": "YopH (Yersinia enterocolitica, UniProt P15273)", "pIC50": "< 4.00"}

Next compound, pIC50 to be filled in.
Memo: Cc1c(Br)cc(NC(=O)CS(=O)(=O)O)cc1Br , reported pIC50: < 4.00

Reference source: patent US10494332B2
